test system: ATP; test: switch fluorescence ratio, 500 uM ATP over buffer (Cy3 cluster intensity, sum of 5 cycles each) (fold (ratio)); higher = stronger signal-on switching upon ATP binding; sequences stand for … in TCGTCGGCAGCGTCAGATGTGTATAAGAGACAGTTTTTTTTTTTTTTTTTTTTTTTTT…TC; conditions: aptamer strand: ATP DNA aptamer (quencher-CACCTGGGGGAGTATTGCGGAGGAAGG + anchor), 100 nM annealed; ATP concentration: 500 uM;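 further: ATP exposure 15 min at 22 °C before imaging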
The reader will find reported switch fluorescence ratio values listed item by item below.
MEASURE_NAME: switch fluorescence ratio

[
  {
    "BIOPOLYMER_SEQUENCE": "TGTTTATGAG",
    "MEASURE_NAME": "switch fluorescence ratio",
    "ENDPOINT_RESULT": 0.985
  },
  {
    "BIOPOLYMER_SEQUENCE": "GGTTGAAGTG",
    "MEASURE_NAME": "switch fluorescence ratio",
    "ENDPOINT_RESULT": 0.974
  },
  {
    "BIOPOLYMER_SEQUENCE": "GGATTCAGCT",
    "MEASURE_NAME": "switch fluorescence ratio",
    "ENDPOINT_RESULT": 0.978
  },
  {
    "BIOPOLYMER_SEQUENCE": "TTTCCTTTTG",
    "MEASURE_NAME": "switch fluorescence ratio",
    "ENDPOINT_RESULT": 1.01
  },
  {
    "BIOPOLYMER_SEQUENCE": "GTGAAGGAGC",
    "MEASURE_NAME": "switch fluorescence ratio",
    "ENDPOINT_RESULT": 0.995
  },
  {
    "BIOPOLYMER_SEQUENCE": "CGTCATCGCA",
    "MEASURE_NAME": "switch fluorescence ratio",
    "ENDPOINT_RESULT": 1.2
  },
  {
    "BIOPOLYMER_SEQUENCE": "TCAATTTTGT",
    "MEASURE_NAME": "switch fluorescence ratio",
    "ENDPOINT_RESULT": 0.997
  },
  {
    "BIOPOLYMER_SEQUENCE": "TTGTCCGTGC",
    "MEASURE_NAME": "switch fluorescence ratio",
    "ENDPOINT_RESULT": 1.14
  },
  {
    "BIOPOLYMER_SEQUENCE": "ATGGGCGAGC",
    "MEASURE_NAME": "switch fluorescence ratio",
    "ENDPOINT_RESULT": 0.981
  },
  {
    "BIOPOLYMER_SEQUENCE": "TTCCGGGAGG",
    "MEASURE_NAME": "switch fluorescence ratio",
    "ENDPOINT_RESULT": 0.993
  },
  {
    "BIOPOLYMER_SEQUENCE": "GTTAGAGAGG",
    "MEASURE_NAME": "switch fluorescence ratio",
    "ENDPOINT_RESULT": 0.978
  },
  {
    "BIOPOLYMER_SEQUENCE": "ATTGGGTTGG",
    "MEASURE_NAME": "switch fluorescence ratio",
    "ENDPOINT_RESULT": 0.998
  },
  {
    "BIOPOLYMER_SEQUENCE": "ACTTTGAGTG",
    "MEASURE_NAME": "switch fluorescence ratio",
    "ENDPOINT_RESULT": 0.976
  },
  {
    "BIOPOLYMER_SEQUENCE": "TCGATGGCTT",
    "MEASURE_NAME": "switch fluorescence ratio",
    "ENDPOINT_RESULT": 1.05
  },
  {
    "BIOPOLYMER_SEQUENCE": "TAGTAATCGA",
    "MEASURE_NAME": "switch fluorescence ratio",
    "ENDPOINT_RESULT": 1.02
  },
  {
    "BIOPOLYMER_SEQUENCE": "TTTGCAAACA",
    "MEASURE_NAME": "switch fluorescence ratio",
    "ENDPOINT_RESULT": 1
  },
  {
    "BIOPOLYMER_SEQUENCE": "TTTGTTTTTT",
    "MEASURE_NAME": "switch fluorescence ratio",
    "ENDPOINT_RESULT": 0.994
  },
  {
    "BIOPOLYMER_SEQUENCE": "CTTTATGGGG",
    "MEASURE_NAME": "switch fluorescence ratio",
    "ENDPOINT_RESULT": 0.974
  },
  {
    "BIOPOLYMER_SEQUENCE": "TCGCGAAATT",
    "MEASURE_NAME": "switch fluorescence ratio",
    "ENDPOINT_RESULT": 0.976
  },
  {
    "BIOPOLYMER_SEQUENCE": "AGGCTGTTTT",
    "MEASURE_NAME": "switch fluorescence ratio",
    "ENDPOINT_RESULT": 1.02
  }
]
